src = patent US6846802B2

The following compounds are shown together with reported Cell-Based Assay values.
ASSAY_TARGET: HCV serine protease (subtype 1b, 1bNS4A21-32GS-GS NS3-81 I17K) in HeLa/Huh7 cells (Hepatitis C virus genotype 1b, UniProt P26663, I1043K)
Assay type: cell-based
Starred links: 1 amine or outer side, 2 acyl side, 3 side chain; linkers in the order of their positions; H or OH if unused. Positions of bridges follow the written chain, without caps; N, C: chain ends. Non-standard residues stand in square brackets, D forms with d. Residues, ends and D or L forms follow the SMILES beside them. Tic(7-O(CH2)6CO) = O=C([C@@H]1Cc2ccc(OCCCCCCC(=O)[*:3])cc2CN1[*:1])[*:2]; X1 = CCC[C@H](N[*:1])C(=O)C(=O)[*:2]; Chg = N[C@H](C(=O)O)C1CCCCC1; Phg = N[C@H](C(=O)O)c1ccccc1
Numeric only. Scale: µM

Would you kindly share the measured Cell-Based Assay for CCCC(NC(=O)[C@@H]1C[C@@H]2CN1C(=O)[C@H](C1CCCCC1)NC(=O)Cc1cccc(c1)OCCO2)C(=O)C(=O)NCC(=O)N[C@H](C(=O)OC(C)(C)C)c1ccccc1 (mixture of isomers) ?
3.5

Which Cell-Based Assay value is on record for CCCC(NC(=O)[C@@H]1Cc2ccc3cc2CN1C(=O)[C@H](C1CCCCC1)NC(=O)CCCCCCO3)C(=O)C(=O)NCC(=O)N[C@H](C(=O)OC(C)(C)C)c1ccccc1 (mixture of isomers) ?
2

Can you share its Cell-Based Assay? I mean this compound: CCC[C@H](NC(=O)[C@@H]1Cc2ccc3cc2CN1C(=O)[C@H](C1CCCCC1)NC(=O)CCCCCCO3)C(=O)C(=O)NCC(=O)N[C@H](C(=O)N(C)C)c1ccccc1 [Compound 57B] ([Chg][Tic(7-O(CH2)6CO)][X1]G[Phg]-NMe2; lactam N-2)
1.5

# query: Cell-Based Assay of entry CCC[C@H](NC(=O)[C@@H]1C[C@@H]2CN1C(=O)[C@H](C(C)(C)C)NC(=O)Cc1cccc(c1)OCCCO2)C(=O)C(=O)NCC(=O)N[C@H](C(=O)N(C)C)c1ccccc1 [Compound 12B]
5.2

Need Cell-Based Assay of CCCC(NC(=O)[C@@H]1C[C@@H]2CN1C(=O)[C@H](C1CCCCC1)NC(=O)Cc1cccc(c1)OCCCO2)C(=O)C(=O)NCC(=O)OCc1ccccc1 (stereo partly shown) , thanks.
3

----------
ASSAY_TARGET: HCV serine protease (subtype 1b, 1bNS4A21-32GS-GS NS3-81 I17K) in HeLa/Huh7 cells (Hepatitis C virus genotype 1b, UniProt P26663, I1043K)
Assay type: cell-based
OBSERVATION_TYPE: Cell-Based Assay (µM)
Unit µM implied. Number only.

Known Cell-Based Assay results, listed for orientation:
CCC[C@@H](NC(=O)[C@@H]1C[C@@H]2CN1C(=O)[C@H](C1CCCCC1)NC(=O)Cc1cccc(c1)OCCCCO2)C(=O)C(=O)NCC(=O)N[C@H](C(=O)N(C)C)c1ccccc1 | 2.5
CCCC(NC(=O)[C@@H]1C[C@@H]2CN1C(=O)[C@H](C1CCCCC1)NC(=O)Cc1cccc(c1)OCCCCO2)C(=O)C(=O)NCC(=O)N[C@H](C(=O)OC(C)(C)C)c1ccccc1 (mixture of isomers) | 0.6
CCCC(NC(=O)[C@@H]1C[C@@H]2CN1C(=O)[C@H](C1CCCCC1)NC(=O)Cc1cccc(c1)OCCCO2)C(=O)C(=O)NCC(=O)N[C@H](C(=O)OC(C)(C)C)c1ccccc1 (some centres unmarked) | 2
CCCC(NC(=O)[C@@H]1C[C@@H]2CN1C(=O)[C@H](C1CCCCC1)NC(=O)CCc1cccc(c1)OCCO2)C(=O)C(=O)NCC(=O)N[C@H](C(=O)OC(C)(C)C)c1ccccc1 (some centres unmarked) | 2

Sample CCC[C@H](NC(=O)[C@@H]1C[C@@H]2CN1C(=O)[C@H](C1CCCCC1)NC(=O)Cc1cccc(c1)OCCCCO2)C(=O)C(=O)NCC(=O)N[C@H](C(=O)N(C)C)c1ccccc1 — what was its Cell-Based Assay?
1.8
